Let's look at some compounds and their measured Therapeutic Index (T.I.).
Test system: HOS cells
Assay: cytotoxicity assay (ATP-Lite cell viability)
Format: cell-based, human
Conditions: ratio of CC50/EC50 (WT)
Description: One day prior to treatment, HOS cells were prepared in 96-well plates as described for the infectivity assays, except that 12 wells per plate were treated with cell-free media to serve as negative controls. […] Cell viability was determined using luciferase reporter ATP-Lite kits (PerkinElmer). As described for the infectivity assays, drug-free reference wells were normalized to 100%, and viabilities at different drug concentrations were determined as a percentage of these references. […]
value type: Therapeutic Index (T.I.)

[[record]]
compound = "Cc1cc(/C=C/C#N)cc(C)c1Nc1nc(Nc2ccc3c(c2)OCO3)c2nc[nH]c2n1"
system_name = "HOS cells"
reported_value = "1.9x10^5"

[[record]]
compound = "Cc1cc(/C=C/C#N)cc(C)c1Nc1nc(Nc2ccc(C#N)cc2)c2nc[nH]c2n1"
system_name = "HOS cells"
reported_value = "1.7x10^4"

[[record]]
compound = "Cc1cc(/C=C/C#N)cc(C)c1-n1cnc2cnc(Nc3ccc(C#N)cc3)nc21"
system_name = "HOS cells"
reported_value = "2.1x10^5"

[[record]]
compound = "Cc1cc(/C=C/C#N)cc(C)c1Nc1nc(Nc2ccc3nn[nH]c3c2)c2nc[nH]c2n1"
system_name = "HOS cells"
reported_value = "5.3x10^3"

[[record]]
compound = "Cc1cc(/C=C/C#N)cc(C)c1Nc1ccnc(Nc2ccc(C#N)cc2)n1"
system_name = "HOS cells"
reported_value = "2.5x10^4"

[[record]]
compound = "Cc1nc2cc(Nc3nc(Nc4c(C)cc(/C=C/C#N)cc4C)nc4[nH]cnc34)ccc2s1"
system_name = "HOS cells"
reported_value = "9.5x10^4"

[[record]]
compound = "Cc1cc(/C=C/C#N)cc(C)c1Nc1ncc([N+](=O)[O-])c(Nc2ccc(C#N)cc2)n1"
system_name = "HOS cells"
reported_value = "1.0x10^5"

[[record]]
compound = "Cc1cc(/C=C/C#N)cc(C)c1Nc1nc(Nc2ccc(C(F)(F)F)cc2)c2nc[nH]c2n1"
system_name = "HOS cells"
reported_value = "1.1x10^4"

[[record]]
compound = "COc1ccc(Nc2nc(Nc3c(C)cc(/C=C/C#N)cc3C)nc3[nH]cnc23)cc1"
system_name = "HOS cells"
reported_value = "6.0x10^4"

[[record]]
compound = "Cc1cc(/C=C/C#N)cc(C)c1Nc1nc(Nc2ccc(F)cc2)c2nc[nH]c2n1"
system_name = "HOS cells"
reported_value = "7.1x10^3"

[[record]]
compound = "COc1ccc(Cn2cnc3c(Nc4c(C)cc(/C=C/C#N)cc4C)nc(Nc4ccc(C#N)cc4)nc32)cc1"
system_name = "HOS cells"
reported_value = "1.4x10^5"

[[record]]
compound = "Cc1cc(/C=C/C#N)cc(C)c1Nc1nc(Nc2ccc3scnc3c2)c2nc[nH]c2n1"
system_name = "HOS cells"
reported_value = "3.8x10^5"

[[record]]
compound = "Cc1cc(/C=C/C#N)cc(C)c1Nc1nc(Nc2ccc(C#N)cc2)ncc1N"
system_name = "HOS cells"
reported_value = "2.5x10^5"

[[record]]
compound = "CC(=O)c1ccc(Nc2nc(Nc3c(C)cc(/C=C/C#N)cc3C)nc3[nH]cnc23)cc1"
system_name = "HOS cells"
reported_value = "2.7x10^4"

[[record]]
compound = "Cc1cc(/C=C/C#N)cc(C)c1Nc1nc(Nc2cc(F)cc(F)c2)c2nc[nH]c2n1"
system_name = "HOS cells"
reported_value = "1.4x10^3"

[[record]]
compound = "Cc1cc(/C=C/C#N)cc(C)c1Nc1nc(Nc2ccc(C#N)cc2)ncc1[N+](=O)[O-]"
system_name = "HOS cells"
reported_value = "1.2x10^5"

[[record]]
compound = "Cc1cc(/C=C/C#N)cc(C)c1Nc1nc(Nc2ccc(C#N)cc2)nc2[nH]cnc12"
system_name = "HOS cells"
reported_value = "1.2x10^6"

[[record]]
compound = "Cc1cc(/C=C/C#N)cc(C)c1Nc1nc(Nc2ccccn2)c2nc[nH]c2n1"
system_name = "HOS cells"
reported_value = "< 3.6x10^2"

[[record]]
compound = "COc1ccc(Cn2cnc3c(Nc4ccc(C#N)cc4)nc(Nc4c(C)cc(/C=C/C#N)cc4C)nc32)cc1"
system_name = "HOS cells"
reported_value = "3.1x10^4"

[[record]]
compound = "Cc1cc(/C=C/C#N)cc(C)c1Nc1ncc(N)c(Nc2ccc(C#N)cc2)n1"
system_name = "HOS cells"
reported_value = "2.7x10^4"

[[record]]
compound = "Cc1cc(/C=C/C#N)cc(C)c1Nc1nc(Nc2ccc3ncsc3c2)c2nc[nH]c2n1"
system_name = "HOS cells"
reported_value = "1.0x10^4"

[[record]]
compound = "Cc1cc(/C=C/C#N)cc(C)c1Nc1nc(Nc2ccc3c(c2)CCC3)c2nc[nH]c2n1"
system_name = "HOS cells"
reported_value = "7.5x10^4"

[[record]]
compound = "Cc1cc(/C=C/C#N)cc(C)c1Nc1ncc2ncn(-c3ccc(C#N)cc3)c2n1"
system_name = "HOS cells"
reported_value = "4.7x10^3"


Numbers sourced from paper PMC3549755.
